Molecular target: Src SH2 (Homo sapiens)
Construct: glutathione-S-transferase(GST)-Src SH2 fusion protein
Sequence (P12931 151-248 limits assumed): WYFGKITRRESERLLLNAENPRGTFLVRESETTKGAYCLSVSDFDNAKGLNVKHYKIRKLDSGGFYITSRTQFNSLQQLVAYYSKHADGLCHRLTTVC
Assay: Inhibition of 125I-phosphopeptide binding to immobilized Src SH2
Details: IC50, SRC SH2 Binding, competitive 125I-phosphopeptide displacement, GST-Src SH2 fusion protein, pH 7.5, room temperature, 20 minutes
Method: The binding affinities of compounds of the present invention to Src SH2 was determined using a competitive radiolabeled phosphopeptide displacement assay. Binding was performed at room temperature for 20 minutes while continuously inverting the plate. […] Results are expressed as IC50 values in Table 1 below.
Readings of pIC50 for the listed compounds
// pIC50 here means minus log10 of the molar concentration (mol/L)

Use these answered entries as a reference point.
CNC(=O)N[C@@H](Cc1ccc(OP(=O)(O)O)cc1)C(=O)NCc1ccc(OCC2CCCCC2)c(C(N)=O)c1 | 5.21
CC(=O)N[C@@H](Cc1ccc(OP(=O)(O)O)cc1)C(=O)N[C@@H](CCC(=O)O)C(=O)N1CCC[C@H]1Cc1ccccc1 | 5.26
CN(CCCC1CCCCC1)C(=O)[C@H](CCC(=O)O)NC(=O)NCc1ccc(OP(=O)(O)O)cc1 | 4.80

// query Item under review: `CN(C)C(=O)N[C@@H](Cc1ccc(OP(=O)(O)O)cc1)C(=O)N[C@@H](CCC(=O)O)C(=O)N(C)CCCC1CCCCC1` . Reported pIC50?
// result 5.96

// query Item under review: CC(=O)N(C)C(Cc1ccc(OP(=O)(O)O)cc1)C(=O)N[C@@H](CCC(=O)O)C(=O)NCCCc1ccccc1 (stereo partly shown) . Reported pIC50?
// result 5.04

// query Item under review: `CC(=O)N[C@@H](Cc1ccc(C(F)(F)P(=O)(O)O)cc1)C(=O)NCc1ccc(OCC2CCCCC2)c(C(N)=O)c1` . Reported pIC50?
// result 4.92
